Cited source: PubChem BioAssay (NCATS)

# Condition description: Ebola virus entry cell assay, ratio channel
Active and inactive are the calls of the source. The call rests on the fitted dose curve.
Measured attribute: outcome

Below, 9 molecules whose answers are already recorded.
C=CC1=C(C(=O)O)N2C(=O)[C@@H](NC(=O)/C(=N/OCC(=O)O)c3csc(N)n3)[C@H]2SC1 (stereo in doubt)	inactive
CCC(=O)OC(OP(=O)(CCCCc1ccccc1)CC(=O)N1C[C@H](C2CCCCC2)C[C@H]1C(=O)O)C(C)C (stereo not given in full)	inactive
CCCCC(C)(O)C/C=C/[C@H]1[C@H](O)CC(=O)[C@@H]1CCCCCCC(=O)OC (stereo not given in full)	inactive
NC(N)=Nc1nc(CSCC/C(N)=N/S(N)(=O)=O)cs1	inactive
N#Cc1ccc(C(c2ccc(C#N)cc2)n2cncn2)cc1	inactive
Clc1ccc2nsnc2c1NC1=NCCN1	inactive
Nc1ccc(C(=O)O)c(O)c1	inactive
CC(=O)S[C@@H]1CC2=CC(=O)CC[C@]2(C)[C@H]2CC[C@@]3(C)[C@@H](CC[C@@]34CCC(=O)O4)[C@H]12	inactive
OCCOCCN1CCN(C2=Nc3ccccc3Sc3ccccc32)CC1	inactive

Moving on to the next molecule.
# query: outcome of entry CC(=O)N=c1sc(S(N)(=O)=O)nn1C
inactive

---

# Test system: CP185
# Measurement protocol: qHTS profiling for inhibitors of Plasmodium falciparum proliferation (AID 504749); further: nearly all actives have a fitted effect of over 60% in size
# Condition description: P. falciparum in erythrocytes, SYBR Green DNA, 72 h; series mostly up to 28.7 µM
Inconclusive results are not listed. Calls of active or inactive are those of the source. Calls follow the shape of the dose curve; as a rule, active = well fitted inhibition curve with a large enough effect; inconclusive = small, poorly fitted or top-dose-only effect; inactive = flat fitted curve, though single readings scatter.
Pick from active, inactive when you respond.

Per the records of this test, what outcome belongs to NNc1ccccc1 ?
inactive

Another: CCCC(C)(COC(N)=O)COC(N)=O
inactive

Another: O=c1oc2ccccc2c(O)c1Cc1c(O)c2ccccc2oc1=O
inactive

Another: CN1C(=O)COc2c(C(=O)NC3CN4CCC3CC4)cc(Cl)cc21 (stereo not given)
inactive

Another: CC(C)(C)NCC(O)c1cc(Cl)c(N)c(C(F)(F)F)c1 (stereo not given)
active

Another: CNC(C)(C)Cc1ccccc1
inactive

Another: COP(=S)(OC)Oc1ccc(S(=O)(=O)N(C)C)cc1
inactive

Another: C[C@]12CC[C@@H]3c4ccc(OC(=O)N(CCCl)CCCl)cc4CC[C@H]3[C@@H]1CC[C@@H]2O
inactive

Another: CCC(C)(C)c1ccc(O)cc1
inactive

Another: NC(=O)CS(=O)C(c1ccccc1)c1ccccc1 (stereo not given)
inactive

Another: CN1CCC(O)(c2ccc(F)cc2)C(C(=O)c2ccc(F)cc2)C1 (stereo not given)
inactive

Another: O=C(Nc1ccc(Br)cc1)c1cc(Br)cc(Br)c1O
inactive

Another: CCCCCCC(=O)CCCCCC/C=C/C[C@@H](O)[C@H](O)[C@@](N)(CO)C(=O)O
inactive

Another: C=C(C)[C@H]1CN[C@H](C(=O)O)[C@H]1CC(=O)O
inactive

Another: c1ccc2c(c1)sc1ccccc12
inactive

Another: CC(C)NC(C)C
inactive

Another: COP(=S)(OC)Oc1ccc(SC)c(C)c1
inactive

Another: NCCc1ccc(O)cc1
inactive

Another: Oc1ccc(Cl)cc1
inactive

Another: C[C@](O)(CS(=O)(=O)c1ccc(F)cc1)C(=O)Nc1ccc(C#N)c(C(F)(F)F)c1
inactive

Another: Clc1cccc(SC2CCNCC2)n1
inactive

Another: CN1C[C@H](C(=O)N[C@]2(C)O[C@@]3(O)[C@@H]4CCCN4C(=O)[C@H](Cc4ccccc4)N3C2=O)C=C2c3cccc4[nH]cc(c34)C[C@H]21
active

Another: O=C(N/N=C/c1ccc([N+](=O)[O-])o1)c1cc([N+](=O)[O-])cc([N+](=O)[O-])c1O
active

Another: CC(C)c1cccc(C(C)C)c1O
inactive

Another: O=C1Nc2ccc(Cl)cc2C(c2ccccc2)=NC1O (stereo not given)
inactive

---

# Condition description: Ebola virus entry assay, green fluorescence channel
Measured potencies and affinities stand elsewhere.
Label true when efficacy is at or above 10%; otherwise label false.

Does the compound CCCCCCCCCCCCCCCCN have recorded efficacy that is 10% or more?
false

Another: O=C(O)c1ccccc1S
true

Another: O=C1c2ccccc2C(=O)c2c1ccc(O)c2O
false

Another: CCOc1ccccc1OCC1CNCCO1 (centres undefined)
true

Another: Cc1ccc(O)c2ncccc12
true

Another: C[C@@H](O)[C@H]1C(=O)N2C(C(=O)O)=C(SCCN=CN)C[C@H]12
true

Another: CCCCC(CC)CNC(=O)CC(C)OC(=O)CCC(=O)O (centres undefined)
true

Another: CCCCCCCCCCCCCCCC(=O)O
false

Another: CCN(CC)CCNC(=O)c1cc(S(C)(=O)=O)ccc1OC
false

Another: COc1ccc(C(=O)N2CCN(CC(=O)N3CCOCC3)CC2)cc1
false

Another: CCCN1CCCC[C@H]1C(=O)Nc1c(C)cccc1C
true

Another: Cc1ncc(CO)c(CN)c1O
false

Another: CCN(CC)CCOC(=O)c1ccc(N)cc1
false

Another: Cc1cc(NS(=O)(=O)c2ccc(N)cc2)no1
true

Another: O=C1CC(c2ccc(Cl)cc2)CC(=O)N1
false

Another: CC(C)(Oc1ccc(C2CC2(Cl)Cl)cc1)C(=O)O (centres undefined)
true

Another: Cc1nc2ccc(CN(C)c3ccc(C(=O)N[C@@H](CCC(=O)O)C(=O)O)s3)cc2c(=O)[nH]1
true

Another: O=C(CCCN1CCC2(CC1)C(=O)NCN2c1ccccc1)c1ccc(F)cc1
false

Another: CC(=O)OCC[N+](C)(C)C
false

Another: Nc1ccc(C(=O)OCC(O)CO)cc1 (centres undefined)
true

Another: CCOc1nc2cccc(C(=O)O)c2n1Cc1ccc(-c2ccccc2-c2nn[nH]n2)cc1
true

Another: O=C(O)c1cc(=O)c2ccccc2o1
false

Another: COc1cc(OC)nc(O[C@H](C(=O)O)C(OC)(c2ccccc2)c2ccccc2)n1
true

Another: NC(=S)N/N=C/c1cccnc1
true

Another: Clc1ccc(C(c2ccc(Cl)cc2)C(Cl)(Cl)Cl)cc1
true

Another: CN(C)C(=O)COC(=O)Cc1ccc(OC(=O)c2ccc(N=C(N)N)cc2)cc1
false

Another: CN1C[C@@H]2C[C@H]1CN2c1cc2c(cc1F)c(=O)c(C(=O)O)cn2C1CC1
true

Another: Cn1c(=O)c2[nH]c(Br)nc2n(C)c1=O
false

Another: CC(=O)[C@@]1(O)CC[C@H]2[C@@H]3C[C@H](C)C4=CC(=O)C=C[C@]4(C)[C@@]3(F)[C@@H](O)C[C@@]21C
false

Another: COc1ccc(C(=O)NCc2ccc(OCCN(C)C)cc2)cc1OC
false

Another: CCN1CCN(C(=O)N[C@@H](C(=O)N[C@@H]2C(=O)N3[C@@H]2SC(C)(C)[C@H]3C(=O)O)c2ccccc2)C(=O)C1=O
false

Another: CC(C)(Oc1ccc(Cl)cc1)C(=O)O
false

Another: CN1Cc2cc(C(=O)N3CCC(C4CCNCC4)CC3)ccc2NC(CC(=O)O)C1=O (centres undefined)
true

Another: CC(=O)c1ccc(S(=O)(=O)NC(=O)NC2CCCCC2)cc1
false

Another: CCCCC(CC)CN1CN(CC(CC)CCCC)CC(C)(N)C1 (centres undefined)
false

Another: FC1(F)C(F)(F)C(F)(F)C2(F)C(F)(F)C(F)(F)C(F)(F)C(F)(F)C2(F)C1(F)F (centres undefined)
false

Another: CC(C)=CCC[C@@](C)(O)[C@H]1CC=C(C)CC1
false

Another: O=C1OC2(c3ccccc31)c1cc(Br)c(O)c(Br)c1Oc1c2cc(Br)c(O)c1Br
true

Another: N#CSCC(=O)O
false

Another: CC(O)C(=O)O (centres undefined)
true

Another: Oc1cccc(O)c1
false

Another: CN1CCN(c2c(F)cc3c(=O)c(C(=O)O)cn4c3c2SCC4)CC1
false

Another: CN(c1nccc(=O)[nH]1)C1CCN(c2nc3ccccc3n2Cc2ccc(F)cc2)CC1
true

Another: CCc1cc(S(=O)(=O)O)c2cc(C(C)C)cccc1-2
true

Another: O=C(O)CCCCC1CCSS1 (centres undefined)
false

Another: CO[C@@H]1[C@@H](OC(N)=O)[C@@H](O)[C@H](Oc2ccc3c(O)c(NC(=O)c4ccc(O)c(CC=C(C)C)c4)c(=O)oc3c2C)OC1(C)C
true

Another: CC(C(=O)O)c1ccc2c(c1)CC(=O)c1ccccc1S2 (centres undefined)
true

Another: O=S(=O)(O)c1ccc2nc(-c3ccccc3)[nH]c2c1
false

---

# Measurement protocol: Cellular Toxicity (caspase-3) Jurkat (AID 655);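 further: cells exposed to compound for 16 h at 37 °C before reading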
# Condition description: Jurkat caspase-3 activation, luminescence, DMSO = 0%, tamoxifen = 100%; at 92.2 µM (top of the series)
Records with an inconclusive call do not appear.
Measured attribute: caspase-3 activation (%)
I only need the number, in %, no unit after it.

# query: caspase-3 activation of entry C[C@]1(O)CC[C@H]2[C@@H]3CCC4=CC(=O)CC[C@]4(C)[C@@]3(F)[C@@H](O)C[C@@]21C
-1.66

Another: Nc1ccccc1C(=O)O
-0.541

Another: C[C@]12CCC(=O)C=C1CC[C@@H]1[C@@H]2CC[C@@]2(C)[C@H]1CC[C@]2(C)O
22.4

Another: COP(=S)(OC)Oc1ccc(SC)c(C)c1
0.672

Another: Clc1ccc(C(c2ccc(Cl)cc2)C(Cl)(Cl)Cl)cc1
7.14

Another: Nc1ccccc1
-1.64

Another: COc1cc(OC)c(OC)cc1C=O
1.29

Another: NCCc1ccc(O)cc1
3.49

Another: O=C(O)CCCc1ccc(N(CCCl)CCCl)cc1
96.5
